From: paper PMC10436493

tested on: HL-7702 normal cell line; assay: MTT cytotoxicity assay on normal liver cells; format: cell-based; conditions: Homo sapiens, L02, 24 h treatment
recorded endpoint: IC50 (µM)

• COc1cccc2cc(C(=O)Nc3cccc(O)c3)c(=O)[nH]c12 [Compound 7] = 13.7

###

biological target: CYP2D6 (Homo sapiens)
Sequence (P10635 whole entry): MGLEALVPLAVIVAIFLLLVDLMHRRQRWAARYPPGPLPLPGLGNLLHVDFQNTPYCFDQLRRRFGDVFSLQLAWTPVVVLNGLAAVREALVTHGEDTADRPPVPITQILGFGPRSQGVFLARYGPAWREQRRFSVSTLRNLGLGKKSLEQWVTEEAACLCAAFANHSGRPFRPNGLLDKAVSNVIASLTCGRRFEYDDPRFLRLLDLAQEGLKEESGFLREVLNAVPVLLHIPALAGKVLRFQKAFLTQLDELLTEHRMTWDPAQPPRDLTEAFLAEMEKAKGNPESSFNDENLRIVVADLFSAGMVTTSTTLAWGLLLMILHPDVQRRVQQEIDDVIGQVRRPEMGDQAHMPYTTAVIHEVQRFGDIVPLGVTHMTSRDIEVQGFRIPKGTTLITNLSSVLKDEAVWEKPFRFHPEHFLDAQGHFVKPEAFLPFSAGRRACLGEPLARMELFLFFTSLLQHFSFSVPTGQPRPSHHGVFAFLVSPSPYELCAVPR
pIC50: −log10 of the molar value.
recorded endpoint: pIC50

- COc1cccc2cc(C(=O)Nc3cccc(O)c3)c(=O)[nH]c12: 3.96

###

Reported melting point values for a set of compounds
recorded endpoint: melting point (°C)

- COc1ccc(Br)c2cc(C(=O)Nc3cccc(O)c3)c(=O)[nH]c12: 255
- COc1cccc2cc(C(=O)Nc3cccc(O)c3)c(=O)oc12: 256
- COc1ccc(Br)c2cc(C(=O)Nc3cccc(O)c3)c(=O)oc12: 289
- COc1ccc(Br)c2cc(C(=O)Nc3cccc(OC(C)=O)c3)c(=O)oc12: 205
